Source: the supplement of paper PMC10567573

B1: RHOBTB3 (parent)
chain: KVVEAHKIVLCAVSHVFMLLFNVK

Variants of: B1
protocol: protein stability index of a GFP-peptide fusion (GPS, HEK-293T) (PSI 1-6); higher = more stable;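 also: lentivirally expressed fusions sorted by FACS into six bins by GFP to DsRed ratio, PSI derived from sequencing read proportions per bin multiplied by bin number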
measurement_setup: c terminus: a fixed tail appended
Rule: protein stability index under 3 gives f, otherwise t.

# chain, class_label
records = [
    ("KVVEAHKIVLCAVSHVFMLLVNVK [F21V]", "t"),
    ("KVVEAHKIVLCAVSHVFMLAFNVK [L20A]", "t"),
    ("KVVEAQKIVLCAVSHVFMLLFNVK [H6Q]", "f"),
    ("KVVEAHKIVLCAVSHVFMLLFNMK [V23M]", "f"),
    ("KVVEAHKIVLCAVSHVFMLYFNVK [L20Y]", "t"),
    ("KVVEAHKIMLCAVSHVFMLLFNVK [V9M]", "f"),
    ("KVVEAHKIVLCAQSHVFMLLFNVK [V13Q]", "f"),
    ("KVVEAHKIVLCAVSHVFMFLFNVK [L19F]", "t"),
    ("KVVEAHKIVLCAVSHVFMLLFNVC [K24C]", "f"),
    ("KVVEAHKIVLCAVSHVFMLPFNVK [L20P]", "f"),
    ("KVVEAHKMVLCAVSHVFMLLFNVK [I8M]", "t"),
    ("KVVEAHKIVLCSVSHVFMLLFNVK [A12S]", "f"),
    ("KVVEAHKIVLCAVSHIFMLLFNVK [V16I]", "f"),
    ("KVVEAHKIVLWAVSHVFMLLFNVK [C11W]", "f"),
    ("KVVEAHKIVLCLVSHVFMLLFNVK [A12L]", "t"),
    ("KVVEAHKIVLCAVSHVFMLLINVK [F21I]", "t"),
    ("KVVEAHKIVYCAVSHVFMLLFNVK [L10Y]", "t"),
    ("SVVEAHKIVLCAVSHVFMLLFNVK [K1S]", "f"),
    ("KVVEAHKCVLCAVSHVFMLLFNVK [I8C]", "f"),
    ("KVVEAHKIVLCDVSHVFMLLFNVK [A12D]", "t"),
    ("KVVEAHKIVLCAVSHVFMLLFIVK [N22I]", "t"),
    ("KVVEAHKIVLCAVSHVFMCLFNVK [L19C]", "f"),
    ("KVVEAHKIVLCAVSHVFMWLFNVK [L19W]", "t"),
    ("KVVEAHKIVLCAVSQVFMLLFNVK [H15Q]", "f"),
    ("KVVEAHKIVLRAVSHVFMLLFNVK [C11R]", "f"),
]
